For each entry below, report its inhibition value.
target: Ubiquitin carboxyl-terminal hydrolase 10 (Homo sapiens); assay: blocks human USP10 ubiquitin-rhodamine cleavage (AID 1645856); details: purified USP10, Ub-rhodamine fluorescence, 60 min; at 20 µM; hits give high values
In all, about 47,000 compounds went through this assay and about 510 (1.1%) were called active. Shown is part of a subset that was picked to be rich in actives.
Numbers only, in %.

Please look at the items below and tell me inhibition for each one, in order.
1. Cc1ccc2[nH]c(=O)c(CN(CC3COCCO3)C(=O)Nc3ccccc3C)cc2c1 (stereo unspecified)
2. Cc1cccc(-n2c3c(c(=O)[nH]c2=O)CN(Cc2ccco2)CN3)c1C
3. CC(C)Cn1cnc2nc(CSc3ccccc3NC(=O)Nc3ccccc3)cc(=O)n21
4. Cc1cc(C)cc(NC(=O)c2cc(CN3CCOCC3)on2)c1
5. NC(=O)CCC(=O)N[C@H]1C[C@H]2CN(Cc3ccccc3)c3ccccc3CN2C1
6. O=C(NCc1noc(C2CCCC2)n1)c1ccccc1
7. COc1ccccc1CN1CCC2(CC1)NC(=O)C(CC(C)C)NC2=O (stereo unspecified)

### Response
1: -0.00505; 2: -1.97; 3: 2.5; 4: -1.83; 5: -7.81; 6: 3.21; 7: 0.757
